Definition: the class of an entry is the range in lower band (below 0.7), central band (0.7 to below 2), upper band (2 or more) that contains its logP.

See these solved cases before continuing.
1) CCCCNC(=O)CCn1ccc(=O)c(O)c1C ... lower band
2) COC(=O)c1c(C)[nH]c(-c2cc(Cl)ccn2)c1C(=O)OC ... upper band

*Q* Lab note: sort COC(=O)c1ccccc1S(=O)(=O)NC(=O)Nc1nc(C)nc(OC)n1 into the matching logP band.
*A* upper band

*Q* Lab note: sort CCOc1ccc(C=NNC(=N)N)cc1 into the matching logP band.
*A* lower band

*Q* Lab note: sort CCOP(=O)(O)Cc1ccc(Cl)cc1 into the matching logP band.
*A* central band

*Q* Lab note: sort O=[N+]([O-])c1cnc(N2CCNC2=S)s1 into the matching logP band.
*A* central band

*Q* Lab note: sort CN1CC(O)CN(C)C1=Nc1ncc([N+](=O)[O-])s1 (stereo unspecified) into the matching logP band.
*A* lower band

*Q* Lab note: sort CCN1C(=O)NC(Cc2ccccc2)C1=O (stereo unspecified) into the matching logP band.
*A* central band

*Q* Lab note: sort CC1c2nc3ccccc3c(=O)n2CN1C (stereo unspecified) into the matching logP band.
*A* central band

*Q* Lab note: sort O=C1NC(=O)C(Cc2ccccc2)(Cc2ccccc2)N1 into the matching logP band.
*A* upper band

*Q* Lab note: sort Cc1ccc(C=O)o1 into the matching logP band.
*A* lower band

*Q* Lab note: sort COCC(=O)Cn1ccnc1[N+](=O)[O-] into the matching logP band.
*A* lower band

*Q* Lab note: sort CC(=O)OCC1=C(C(=O)O)N2C(=O)[C@@H](NC(=O)CSc3ccncc3)[C@H]2SC1 into the matching logP band.
*A* lower band

*Q* Lab note: sort O=C1CN=C(c2ccccc2F)c2cc(Cl)ccc2N1CC(F)(F)F into the matching logP band.
*A* upper band

*Q* Lab note: sort NC(=O)Cc1ccc(C(=O)O)cc1 into the matching logP band.
*A* lower band

*Q* Lab note: sort COc1ncnc2c1ncn2C1OC(CO)C(OC(=O)C(C)(C)C)C1OC(=O)C(C)(C)C (stereo unspecified) into the matching logP band.
*A* upper band

*Q* Lab note: sort CCCC(=NOCC)C1C(=O)CC(c2ccccc2)(c2ccccc2)OC1=O (stereo unspecified) into the matching logP band.
*A* upper band

*Q* Lab note: sort COC(=O)Nc1nc2cc(C(=O)c3ccccc3)ccc2n1C(=O)OC into the matching logP band.
*A* upper band

*Q* Lab note: sort CCN(CC)C(=O)CCn1ccc(=O)c(O)c1C into the matching logP band.
*A* lower band

====

Please provide measured logP for the entries that follow.
One number for each entry.

Parameter requested: logP. Apply to each item below.
1. CN1CCN(Cc2ncc([N+](=O)[O-])n2C)CC1
2. CCCCCO
3. Nc1ccc(C(=O)O)cc1N
4. CC(Cl)CCl (stereo unspecified)
5. CC(=O)c1ccc2c(c1)N(CCCN1CCN(CCO)CC1)c1ccccc1S2
6. O=C(OC[C@H]1O[C@@H](n2cc(I)c(=O)[nH]c2=O)C[C@@H]1O)c1ccccc1

*A*
[-0.32, 1.51, 0.13, 1.98, 2.62, 1.4]

Parameter requested: logP. Apply to each item below.
1. NCCCCN
2. CCCCn1ccc(=O)c(O)c1C
3. Cc1cccc(Nc2c([N+](=O)[O-])c(C)nn2-c2ccccc2)c1
4. CCCN(C)CC(F)(F)F

*A*
1. -0.7
2. 0.7
3. 3.25
4. 2.18

Parameter requested: logP. Apply to each item below.
1. COC1CC(OC2CCC3(C)C2CCC2C3CCC3(C)C(C4=CC(=O)OC4)CCC23O)OC(C)C1O (stereo unspecified)
2. COC(=O)C1CC2C3CCC4=CC(=O)C=CC4(C)C3C(O)CC2(C)C1C(=O)CO (stereo unspecified)
3. Nc1nc(=O)n(C2OC(CO)CC2F)cc1Cl (stereo unspecified)
4. O=C1NC(Cc2ccccc2)C(=O)N1Cc1ccccc1 (stereo unspecified)
5. C=CCC(CC=C)(C(=O)NC(N)=O)C(=O)OC
6. CCCCCCC(=O)O
7. NCC1(CC(=O)O)CCCCC1
8. COc1ccc(C(O)C(=O)O)cc1 (stereo unspecified)

*A*
1: 2.37; 2: 1.7; 3: -0.46; 4: 2.84; 5: 1.37; 6: 2.42; 7: -1.1; 8: 0.63

Parameter requested: logP. Apply to each item below.
1. Clc1ccccc1
2. CCc1c(O)c(=O)ccn1C(C)C
3. CN1C(=O)C(C)(C2=CCCCC2)C(=O)N=C1O (stereo unspecified)
4. CCc1c(O)c(=O)ccn1CCO
5. O=C(Cc1cccnc1)NN1CC=CCC1
6. CNc1nc(C)c(C(=O)CCN2CCOCC2)s1

*A*
1: 2.84; 2: 0.73; 3: 1.98; 4: -0.66; 5: 0.05; 6: 0.95

====

endpoint label: logP
Answers are plain numbers.

For orientation, consider the following solved cases.
1) O=C(O)Cc1ccc(C(=O)O)cc1 ... 1.24
2) CCCCCCC(=O)N(C)c1ccc(S(=O)(=O)N(C)C)cc1 ... 2.61
3) Cc1ccc(Cl)c(NS(=O)(=O)c2nc(C)n(-c3ccccc3)n2)c1Cl ... 4.4

Parameter requested: logP. Apply to each item below.
1. CCN(CC)CCCN1c2ccccc2Sc2ccc(Cl)cc21
2. CNC(=O)c1cccc(Oc2cc(C)ccc2C)c1
3. CN(C)C(=O)OCc1ccc(C(N)=O)cc1
4. Cc1ccc(OCC(OC(=S)n2ccnc2)C(C)(C)C)cc1 (stereo unspecified)

*A*
6.46
3.76
0.77
4.66

Parameter requested: logP. Apply to each item below.
1. CCCCCCCCN(C)N=Nc1[nH]cnc1C(N)=O
2. C=CC(=O)OCCOCCOCCOCCOC(=O)C=C
3. CCC(CC)(C(=O)NC(N)=S)C(=O)OC

*A*
1: 3.22; 2: 1.26; 3: 1.82

Parameter requested: logP. Apply to each item below.
1. O=c1[nH]c(=O)n(C2OC(CO)CC2F)cc1Cl (stereo unspecified)
2. CSc1ccc(OCC(OC(=O)n2ccnc2)C(C)(C)C)cc1 (stereo unspecified)
3. COc1ccc(OCC(OC(=S)n2ccnc2)C(C)(C)C)cc1 (stereo unspecified)
4. CCOC(=O)NC1=NCC(c2ccc(CO)cc2)N1C (stereo unspecified)
5. CCCN1CCOC2c3cc(O)ccc3OCC21 (stereo unspecified)

*A*
[-0.28, 4.03, 4.31, 0.84, 1.97]

Parameter requested: logP. Apply to each item below.
1. COC(=O)NC1=NCC(c2ccc(C(C)C)cc2)N1 (stereo unspecified)
2. CCOC(=O)c1cnc2n(c1=O)CCC(C)C2 (stereo unspecified)
3. CC(C)(C)c1ccc(OCC(OC(=O)n2ccnc2)C(C)(C)C)cc1 (stereo unspecified)
4. CCN(CC)CCC(=O)c1sc(N)nc1C
5. CCCC1=Nc2cc(Cl)c(S(N)(=O)=O)cc2S(=O)(=O)N1
6. COC(=O)NC1=NCC(c2cccc(F)c2)N1 (stereo unspecified)
7. CCCCCCCCCCCCOC(=O)N(C)SN(C)C(=O)Oc1ccc2c(c1)OCO2
8. CC(C)(C)C(COc1ccc(Cl)cc1)OC(=S)n1ccnc1 (stereo unspecified)

*A*
1. 2.6
2. 0.66
3. 4.82
4. 1.76
5. 1.21
6. 1.41
7. 7.39
8. 4.96

====

# label = Yes if logP < 1 else No

See these solved cases before continuing.
1) COc1cc(N)ccc1C(=O)O ... Yes
2) Nc1cc([N+](=O)[O-])ccc1O ... No
3) Cn1nnnc1SCC1=C(C(=O)O)N2C(=O)[C@@H](NC(=O)[C@H](O)c3ccccc3)[C@H]2SC1 ... Yes

*Q* Determine if COC(=O)NC1=NCC(c2cccc(Cl)c2)N1C (configuration not stated) shows logP strictly lower than 1.
*A* No

*Q* Determine if Cc1cccc(C(N)=O)c1O shows logP strictly lower than 1.
*A* No

*Q* Determine if CC(C)N(CCC(CCN1CCCCC1)(C(N)=O)c1ccccc1Cl)C(C)C (configuration not stated) shows logP strictly lower than 1.
*A* No

====

endpoint label: logP

For orientation, consider the following solved cases.
1) Cc1ccc2c(c1)C1CN(C)CCC1N2C(=O)C=Cc1ccccc1 (configuration not stated) ... 3.49
2) CCOCCCn1ccc(=O)c(O)c1CC ... 0.72
3) N#Cc1ccc(Cl)cc1 ... 2.47
4) Nc1nc(N)c2ncn([C@H]3C=C[C@@H](CO)O3)c2n1 ... -0.48
5) CC(C(=O)CCN(C)C)N1C(=O)C2CC=CCC2C1=O (configuration not stated) ... 0.77

Parameter requested: logP. Apply to each item below.
1. COc1ccc(-c2nc3ncc(N)cc3[nH]2)c(OC)c1
2. CCOC(=O)NC1=NCC(c2cccc(F)c2)N1C (configuration not stated)
3. CCCCCCCOC(=O)c1cc(=O)[nH]c(=O)[nH]1
4. CCOC(=O)CCCO
5. COC(=O)C(C#N)=Cc1ccc(SC)o1

*A*
[1.62, 1.84, 2.15, 0.43, 2.61]

Parameter requested: logP. Apply to each item below.
1. NS(=O)(=O)c1ccc(S(=O)(=O)CCCO)c([N+](=O)[O-])c1
2. CCC(C(=O)OCc1ccc(C)cc1)C(CO)Cc1cncn1C (configuration not stated)

*A*
-0.05
2.46

Parameter requested: logP. Apply to each item below.
1. Cc1c(O)c(=O)ccn1C(C)C
2. CNC(=O)c1cccc(Oc2ccccc2)c1
3. Cc1ccccc1C(=O)CCN1CCCCC1
4. CNC(=O)NCCCCn1nc(-c2ccccc2)ccc1=O
5. C[C@@H]1O[C@@H](O[C@@H]2C=C3CC[C@@H]4[C@H](CC[C@]5(C)[C@@H](c6ccc(=O)oc6)CC[C@]45O)[C@@]3(C)CC2)[C@H](O)[C@H](O)[C@H]1O
6. CN(Cc1ccccc1)C(=O)C(Cc1ccccc1)NC(=O)C(Cc1cn(C(=O)OCc2ccccc2)c2ccccc12)NC(=O)CC1NC(=O)C2C3CCC(CC3)N2C1=O (configuration not stated)
7. Cc1ccn2c(=O)ccnc2c1

*A*
0.05
2.86
3.54
1.23
2.48
5.66
0.56
